Each recorded value in this set is attributed to patent US8290713.

studyTarget: α-synuclein (UniProt P37840 1-140); also: test concentration or dose not given here
assayText: cell-based or functional assay
Non-standard residues stand in square brackets, D forms with d.
measuredEndpoint: % decrease in ThT fluorescence (%)

1 = Ac-[dQ][dY][dK][dV][dL][dI]-NH2 (SMILES CC[C@@H](C)[C@@H](NC(=O)[C@@H](CC(C)C)NC(=O)[C@H](NC(=O)[C@@H](CCCCN)NC(=O)[C@@H](Cc1ccc(O)cc1)NC(=O)[C@@H](CCC(N)=O)NC(C)=O)C(C)C)C(N)=O) [ZP-0202]
2 = Ac-[dH][dH][dT][dT][dV][dY]-NH2 (SMILES CC(=O)N[C@H](Cc1c[nH]cn1)C(=O)N[C@H](Cc1c[nH]cn1)C(=O)N[C@@H](C(=O)N[C@@H](C(=O)N[C@@H](C(=O)N[C@H](Cc1ccc(O)cc1)C(N)=O)C(C)C)[C@H](C)O)[C@H](C)O) [ZP-0194]
Data request: I'm curious whether 1 or 2 has the smaller % decrease in ThT fluorescence number. Which is it? # reply format: chosen label
Data returned: 2
